Provide the recorded inhibition at 10 µM for the entries that follow.
- Test system: SK-MEL-2 (melanoma)
- PROCEDURE_DETAILS: NCI-60 SRB cytotoxicity screen
- Type: cell-based
- CONDITION_INFO: Homo sapiens; SK-MEL-2, single dose 10 μM; read-out: growth inhibition (GI%)

Q: Tell me its inhibition at 10 µM given CCc1cccc2cc(-c3cc(-c4ccc(F)cc4)[nH]c(=O)c3C#N)c(Cl)nc12 as the entry.
A: < 10%

Q: Tell me its inhibition at 10 µM given CCc1cccc2cc(-c3cc(-c4ccc(Br)cc4)[nH]c(=S)c3C#N)c(Cl)nc12 as the entry.
A: < 10%

Q: Tell me its inhibition at 10 µM given CCc1cccc2cc(-c3cc(-c4ccc(OC)cc4)[nH]c(=O)c3C#N)c(Cl)nc12 as the entry.
A: < 10%

====

- Tested on: T-47D (breast cancer)
- PROCEDURE_DETAILS: NCI-60 SRB cytotoxicity screen
- Format: cell-based
- CONDITION_INFO: Homo sapiens, T47D, single dose 10 μM, read-out: growth inhibition (GI%)
Provide the recorded inhibition at 10 µM for the entries that follow.
Lab book: enter the figure in %, no units written.

Q: Enter measured inhibition at 10 µM, system T-47D (breast cancer), for the compound shown: CCc1cccc2cc(-c3cc(-c4ccc(F)cc4)[nH]c(=O)c3C#N)c(Cl)nc12
A: 14.4

Q: Enter measured inhibition at 10 µM, system T-47D (breast cancer), for the compound shown: CCc1cccc2cc(C3C=C(c4ccc(F)cc4)NC(=S)N3)c(Cl)nc12 (stereo not drawn)
A: 23.9

Q: Enter measured inhibition at 10 µM, system T-47D (breast cancer), for the compound shown: CCc1cccc2cc(-c3cc(-c4ccc(Br)cc4)[nH]c(=S)c3C#N)c(Cl)nc12
A: 10.4

====

Provide the recorded melting point for the entries that follow.

Q: Tell me its melting point given CCc1cccc2cc(-c3cc(-c4ccc(F)cc4)[nH]c(=S)c3C#N)c(Cl)nc12 as the entry.
A: 235 to 237 °C

Q: Tell me its melting point given CCc1cccc2cc(C=CC(=O)c3ccc(F)cc3)c(Cl)nc12 as the entry.
A: 215 to 217 °C

Q: Tell me its melting point given CCc1cccc2cc(C=CC(=O)c3ccc(Br)cc3)c(Cl)nc12 as the entry.
A: 210 to 212 °C

====

- Test system: T-47D (breast cancer)
- PROCEDURE_DETAILS: NCI-60 SRB cytotoxicity screen
- Type: cell-based
- CONDITION_INFO: Homo sapiens, T47D, single dose 10 μM, read-out: growth inhibition (GI%)
Would you mind labelling by inhibition at 10 µM? At or over 40% is fulfilled, under is not fulfilled.

Q: Exam item: decide whether the reported inhibition at 10 µM for CCc1cccc2cc(-c3cc(-c4ccc(OC)c(OC)c4)[nH]c(=O)c3C#N)c(Cl)nc12 is at least 40%.
A: not fulfilled

Q: Exam item: decide whether the reported inhibition at 10 µM for CCc1cccc2cc(C3C=C(c4ccc(Br)cc4)NC(=S)N3)c(Cl)nc12 (centres unmarked) is at least 40%.
A: not fulfilled

Q: Exam item: decide whether the reported inhibition at 10 µM for CCc1cccc2cc(C3C=C(c4ccc(OC)c(OC)c4)NC(=S)N3)c(Cl)nc12 (centres unmarked) is at least 40%.
A: not fulfilled

Q: Exam item: decide whether the reported inhibition at 10 µM for CCc1cccc2cc(-c3cc(-c4ccc(OC)cc4)[nH]c(=O)c3C#N)c(Cl)nc12 is at least 40%.
A: not fulfilled

Q: Exam item: decide whether the reported inhibition at 10 µM for CCc1cccc2cc(C3C=C(c4ccc(OC)cc4)NC(=S)N3)c(Cl)nc12 (centres unmarked) is at least 40%.
A: not fulfilled

Q: Exam item: decide whether the reported inhibition at 10 µM for CCc1cccc2cc(C=CC(=O)c3ccc(OC)cc3)c(Cl)nc12 is at least 40%.
A: fulfilled

Q: Exam item: decide whether the reported inhibition at 10 µM for CCc1cccc2cc(-c3cc(-c4ccc(F)cc4)[nH]c(=S)c3C#N)c(Cl)nc12 is at least 40%.
A: not fulfilled

Q: Exam item: decide whether the reported inhibition at 10 µM for CCc1cccc2cc(C3C=C(c4cc(OC)c(OC)c(OC)c4)NC(=S)N3)c(Cl)nc12 (centres unmarked) is at least 40%.
A: fulfilled

Q: Exam item: decide whether the reported inhibition at 10 µM for CCc1cccc2cc(C=CC(=O)c3cc(OC)c(OC)c(OC)c3)c(Cl)nc12 is at least 40%.
A: fulfilled

Q: Exam item: decide whether the reported inhibition at 10 µM for CCc1cccc2cc(C=CC(=O)c3ccc(OC)c(OC)c3)c(Cl)nc12 is at least 40%.
A: fulfilled

Q: Exam item: decide whether the reported inhibition at 10 µM for CCc1cccc2cc(-c3cc(-c4cc(OC)c(OC)c(OC)c4)[nH]c(=S)c3C#N)c(Cl)nc12 is at least 40%.
A: fulfilled

Q: Exam item: decide whether the reported inhibition at 10 µM for CCc1cccc2cc(-c3cc(-c4ccc(OC)cc4)[nH]c(=S)c3C#N)c(Cl)nc12 is at least 40%.
A: not fulfilled

Q: Exam item: decide whether the reported inhibition at 10 µM for CCc1cccc2cc(C=CC(=O)c3ccc(Br)cc3)c(Cl)nc12 is at least 40%.
A: not fulfilled

Q: Exam item: decide whether the reported inhibition at 10 µM for CCc1cccc2cc(-c3cc(-c4cc(OC)c(OC)c(OC)c4)[nH]c(=O)c3C#N)c(Cl)nc12 is at least 40%.
A: fulfilled

Q: Exam item: decide whether the reported inhibition at 10 µM for CCc1cccc2cc(C=CC(=O)c3ccc(F)cc3)c(Cl)nc12 is at least 40%.
A: not fulfilled

Q: Exam item: decide whether the reported inhibition at 10 µM for CCc1cccc2cc(-c3cc(-c4ccc(Br)cc4)[nH]c(=O)c3C#N)c(Cl)nc12 is at least 40%.
A: not fulfilled

====

- Tested on: UACC-257 (melanoma)
- PROCEDURE_DETAILS: NCI-60 SRB cytotoxicity screen
- Assay type: cell-based
- CONDITION_INFO: Homo sapiens; UACC-257, single dose 10 μM; read-out: growth inhibition (GI%)
Provide the recorded inhibition at 10 µM for the entries that follow.

Q: Tell me its inhibition at 10 µM given CCc1cccc2cc(C3C=C(c4ccc(Br)cc4)NC(=S)N3)c(Cl)nc12 (centres unmarked) as the entry.
A: < 10%

Q: Tell me its inhibition at 10 µM given CCc1cccc2cc(C3C=C(c4ccc(F)cc4)NC(=S)N3)c(Cl)nc12 (centres unmarked) as the entry.
A: < 10%

Q: Tell me its inhibition at 10 µM given CCc1cccc2cc(-c3cc(-c4cc(OC)c(OC)c(OC)c4)[nH]c(=S)c3C#N)c(Cl)nc12 as the entry.
A: 20.1%

Q: Tell me its inhibition at 10 µM given CCc1cccc2cc(-c3cc(-c4ccc(Br)cc4)[nH]c(=S)c3C#N)c(Cl)nc12 as the entry.
A: < 10%

Q: Tell me its inhibition at 10 µM given CCc1cccc2cc(C=CC(=O)c3cc(OC)c(OC)c(OC)c3)c(Cl)nc12 as the entry.
A: 43.6%

Q: Tell me its inhibition at 10 µM given CCc1cccc2cc(-c3cc(-c4ccc(F)cc4)[nH]c(=S)c3C#N)c(Cl)nc12 as the entry.
A: < 10%

Q: Tell me its inhibition at 10 µM given CCc1cccc2cc(-c3cc(-c4ccc(Br)cc4)[nH]c(=O)c3C#N)c(Cl)nc12 as the entry.
A: < 10%

Q: Tell me its inhibition at 10 µM given CCc1cccc2cc(C3C=C(c4ccc(OC)cc4)NC(=S)N3)c(Cl)nc12 (centres unmarked) as the entry.
A: < 10%

Q: Tell me its inhibition at 10 µM given CCc1cccc2cc(-c3cc(-c4cc(OC)c(OC)c(OC)c4)[nH]c(=O)c3C#N)c(Cl)nc12 as the entry.
A: 26.5%

Q: Tell me its inhibition at 10 µM given CCc1cccc2cc(-c3cc(-c4ccc(OC)c(OC)c4)[nH]c(=S)c3C#N)c(Cl)nc12 as the entry.
A: < 10%

Q: Tell me its inhibition at 10 µM given CCc1cccc2cc(C=CC(=O)c3ccc(OC)cc3)c(Cl)nc12 as the entry.
A: < 10%

Q: Tell me its inhibition at 10 µM given CCc1cccc2cc(C=CC(=O)c3ccc(Br)cc3)c(Cl)nc12 as the entry.
A: < 10%

Q: Tell me its inhibition at 10 µM given CCc1cccc2cc(C3C=C(c4ccc(OC)c(OC)c4)NC(=S)N3)c(Cl)nc12 (centres unmarked) as the entry.
A: < 10%

Q: Tell me its inhibition at 10 µM given CCc1cccc2cc(-c3cc(-c4ccc(OC)c(OC)c4)[nH]c(=O)c3C#N)c(Cl)nc12 as the entry.
A: < 10%

Q: Tell me its inhibition at 10 µM given CCc1cccc2cc(C=CC(=O)c3ccc(F)cc3)c(Cl)nc12 as the entry.
A: < 10%

Q: Tell me its inhibition at 10 µM given CCc1cccc2cc(-c3cc(-c4ccc(F)cc4)[nH]c(=O)c3C#N)c(Cl)nc12 as the entry.
A: < 10%

Q: Tell me its inhibition at 10 µM given CCc1cccc2cc(-c3cc(-c4ccc(OC)cc4)[nH]c(=S)c3C#N)c(Cl)nc12 as the entry.
A: < 10%
